Target: wild type ELIC (Dickeya chrysanthemi, UniProt P0C7B7)
Construct: expressed in transfected cells; host or cells: Xenopus laevis oocytes (cRNA injection)
Sequence (P0C7B7 whole entry): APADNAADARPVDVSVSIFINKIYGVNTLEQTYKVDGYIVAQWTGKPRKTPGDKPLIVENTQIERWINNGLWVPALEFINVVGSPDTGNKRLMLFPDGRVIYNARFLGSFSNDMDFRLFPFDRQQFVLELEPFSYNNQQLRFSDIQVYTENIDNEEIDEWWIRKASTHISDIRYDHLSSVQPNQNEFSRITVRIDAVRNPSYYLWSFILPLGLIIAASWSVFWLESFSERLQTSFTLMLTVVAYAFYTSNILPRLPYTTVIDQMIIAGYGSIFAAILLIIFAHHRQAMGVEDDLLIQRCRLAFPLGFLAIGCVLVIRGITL
Assay: Inhibition of GABA-elicited currents of wild-type ELIC in Xenopus oocytes
Type: cell-based, Erwinia chrysanthemii
Settings: wild type ELIC; inhibition measured at the GABA EC50; read-out: IC50
Experimental: Xenopus laevis oocyte-positive females were purchased from NASCO (Fort Atkinson, WI) and maintained according to standard methods. […] ELIC (GenBank accession number ADN00343.1) was kindly provided by C. […] Stage V and VI oocytes were injected with 20 ng of cRNA, and currents were recorded 1–3 days postinjection. […]
assay-metric: IC50 (µM)
Just the number in µM, nothing appended.

Tell me its IC50 given CCCC(C(=O)OCCN(CC)CC)(c1ccccc1)c1ccccc1 as the entry.
8.1

Taken from paper PMC4312132.
